Reference source for all entries: the supplement of paper PMC7877785

Listed sequences paired with reported self-splicing fitness (ln)
test: self-splicing fitness, log relative to wild type (ln ratio); higher = more splicing; Tetrahymena group I intron in knt gene, E. coli kanamycin selection, DiMSum; sequences stand for … in CUCUCU…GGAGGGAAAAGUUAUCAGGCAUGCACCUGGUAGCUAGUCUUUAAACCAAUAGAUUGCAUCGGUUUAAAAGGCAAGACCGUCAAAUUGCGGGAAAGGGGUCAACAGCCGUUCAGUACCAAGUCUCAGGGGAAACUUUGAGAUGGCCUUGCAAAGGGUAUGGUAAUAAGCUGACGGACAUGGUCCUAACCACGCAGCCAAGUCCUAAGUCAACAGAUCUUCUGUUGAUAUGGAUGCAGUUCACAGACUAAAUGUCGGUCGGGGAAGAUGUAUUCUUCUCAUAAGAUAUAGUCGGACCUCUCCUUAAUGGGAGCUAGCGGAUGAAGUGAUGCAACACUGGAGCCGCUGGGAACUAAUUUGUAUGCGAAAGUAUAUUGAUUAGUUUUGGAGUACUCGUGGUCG; conditions: 30 °C;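 also: selection with 25 µg/mL kanamycin versus none on LB agar overnight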
// no unit, no text: just the number

Record UCUGAGCAAUAUUACGCUGG . Reported self-splicing fitness (ln): -2

For record AUGAAGCAAUAUUACGCGGA the listed self-splicing fitness (ln) is -0.591

Briefly, self-splicing fitness (ln) measured for CAGCAGCAAUAUUACGAAUG : -1.69

For AAUAAGCAAUAUUACGGCAG the sequence record lists self-splicing fitness (ln) as -0.454
